These measurements were taken from ChEMBL document CHEMBL2040729.

species on record: Callithrix jacchus; test: Inhibition of mormoset placenta cytosolic 17betaHSD1 using [3H]E1 as substrate at 50 nM after 10 mins by radioflow detection assay
reported-endpoint: inhibition (%)
Give bare numbers, in %.

Would you please look over these solved cases?
- smiles-input: "CC(=O)Nc1ccc(S(=O)(=O)Nc2cccc(-c3c(O)ccc4cc(-c5cccc(O)c5)ccc34)c2)cc1"
  result-units: "%"
  inhibition: 31
- smiles-input: "O=S(=O)(Nc1cccc(-c2c(O)ccc3cc(-c4cccc(O)c4)ccc23)c1)c1cccc(O)c1"
  result-units: "%"
  inhibition: 20

Please give inhibition for each item listed below.
1. O=S(=O)(c1ccccc1)n1ccc2ccc(-c3c(O)ccc4cc(-c5cccc(O)c5)ccc34)cc21
2. O=[N+]([O-])c1cccc(S(=O)(=O)Nc2cccc(-c3c(O)ccc4cc(-c5cccc(O)c5)ccc34)c2)c1
3. O=S(=O)(Nc1cccc(-c2c(O)ccc3cc(-c4cccc(O)c4)ccc23)c1)c1ccccc1F
4. O=S(=O)(CC(F)(F)F)Nc1cccc(-c2c(O)ccc3cc(-c4cccc(O)c4)ccc23)c1

*A*
1. 14
2. 16
3. 19
4. 17

*Q* Look up inhibition: "O=S(=O)(Nc1cccc(-c2c(O)ccc3cc(-c4cccc(O)c4)ccc23)c1)c1ccccc1"
*A* 19

###

species: Callithrix jacchus; test: Inhibition of mormoset placenta cytosolic 17betaHSD1 using [3H]E1 as substrate at 50 nM after 10 mins by radioflow detection assay
reported-endpoint: inhibition (%)
Numbers only, in %.

Please give inhibition for each item listed below.
1. O=S(=O)(c1ccccc1)n1ccc2c(-c3c(O)ccc4cc(-c5cccc(O)c5)ccc34)cccc21
2. O=[N+]([O-])c1ccc(S(=O)(=O)Nc2cccc(-c3c(O)ccc4cc(-c5cccc(O)c5)ccc34)c2)cc1
3. Cc1ccccc1S(=O)(=O)Nc1cccc(-c2c(O)ccc3cc(-c4cccc(O)c4)ccc23)c1
4. N#Cc1cccc(S(=O)(=O)Nc2cccc(-c3c(O)ccc4cc(-c5cccc(O)c5)ccc34)c2)c1

*A*
79
28
20
11

###

organism: Callithrix jacchus; assay: Inhibition of mormoset placenta cytosolic 17betaHSD1 using [3H]E1 as substrate at 50 nM after 10 mins by radioflow detection assay
reported-endpoint: inhibition

Would you please look over these solved cases?
- smiles-input: "O=S(=O)(Nc1cccc(-c2c(O)ccc3cc(-c4cccc(O)c4)ccc23)c1)c1ccc(Br)cc1OC(F)(F)F"
  meas-value: "< 10%"
- smiles-input: "Cc1ccc(S(=O)(=O)Nc2cccc(-c3c(O)ccc4cc(-c5cccc(O)c5)ccc34)c2)cc1"
  meas-value: "< 10%"
- smiles-input: "O=S(=O)(Nc1cccc(-c2c(O)ccc3cc(-c4cccc(O)c4)ccc23)c1)c1cccs1"
  meas-value: "25%"

Now let's try a different one.
*Q* Look up inhibition: "O=[N+]([O-])c1ccccc1S(=O)(=O)Nc1cccc(-c2c(O)ccc3cc(-c4cccc(O)c4)ccc23)c1"
*A* < 10%

###

target: 17-beta-hydroxysteroid dehydrogenase type 1 (Homo sapiens); assay: Inhibition of 17betaHSD1 in human T47D cells using [3H]E1 as substrate incubated for 30 mins prior to substrate addition measured after 30 mins by radioflow detection assay; type: cell-based
Hi! Could you tag entries with IC50 below 500 nM as Condition met, and those at or above as Condition not met? Much appreciated.

- smiles-input: "O=[N+]([O-])c1cccc(S(=O)(=O)Nc2cccc(-c3c(O)ccc4cc(-c5cccc(O)c5)ccc34)c2)c1"
  assigned-category: "Condition met"
- smiles-input: "Cc1ccc(S(=O)(=O)Nc2cccc(-c3c(O)ccc4cc(-c5cccc(O)c5)ccc34)c2)cc1"
  assigned-category: "Condition not met"
- smiles-input: "O=S(=O)(Nc1cccc(-c2c(O)ccc3cc(-c4cccc(O)c4)ccc23)c1)c1ccc(F)cc1"
  assigned-category: "Condition not met"
- smiles-input: "O=S(=O)(Nc1cccc(-c2c(O)ccc3cc(-c4cccc(O)c4)ccc23)c1)c1cccc(F)c1"
  assigned-category: "Condition met"
- smiles-input: "Cc1ccccc1S(=O)(=O)Nc1cccc(-c2c(O)ccc3cc(-c4cccc(O)c4)ccc23)c1"
  assigned-category: "Condition not met"
- smiles-input: "O=[N+]([O-])c1ccccc1S(=O)(=O)Nc1cccc(-c2c(O)ccc3cc(-c4cccc(O)c4)ccc23)c1"
  assigned-category: "Condition met"
- smiles-input: "O=S(=O)(Nc1cccc(-c2c(O)ccc3cc(-c4cccc(O)c4)ccc23)c1)c1cccc(O)c1"
  assigned-category: "Condition not met"

Here's the next entry for you.
*Q* Bench note: check whether "O=S(=O)(Nc1cccc(-c2c(O)ccc3cc(-c4cccc(O)c4)ccc23)c1)c1ccccc1F" shows IC50 below 500 nM
*A* Condition met

###

species: Callithrix jacchus; test: Inhibition of mormoset placenta cytosolic 17betaHSD1 using [3H]E1 as substrate at 50 nM after 10 mins by radioflow detection assay
reported-endpoint: inhibition (%)
Answers are plain numbers, in %.

Would you please look over these solved cases?
- smiles-input: "N#Cc1ccc(S(=O)(=O)Nc2cccc(-c3c(O)ccc4cc(-c5cccc(O)c5)ccc34)c2)cc1"
  inhibition, %: 25
- smiles-input: "O=S(=O)(Nc1cccc(-c2c(O)ccc3cc(-c4cccc(O)c4)ccc23)c1)c1cc(F)c(Br)cc1F"
  inhibition, %: 14

Please give inhibition for each item listed below.
1. O=S(=O)(Nc1cccc(-c2c(O)ccc3cc(-c4cccc(O)c4)ccc23)c1)c1ccc2ncccc2c1
2. N#Cc1ccccc1S(=O)(=O)Nc1cccc(-c2c(O)ccc3cc(-c4cccc(O)c4)ccc23)c1
3. O=S(=O)(Nc1cccc(-c2c(O)ccc3cc(-c4cccc(O)c4)ccc23)c1)c1ccc(F)cc1
4. O=[N+]([O-])c1ccc(S(=O)(=O)Nc2cccc(-c3c(O)ccc4cc(-c5cccc(O)c5)ccc34)c2)c([N+](=O)[O-])c1

*A*
1: 38; 2: 43; 3: 24; 4: 16

###

target: 17-beta-hydroxysteroid dehydrogenase type 1 (Homo sapiens, UniProt P14061); assay: Inhibition of human placenta cytosolic 17betaHSD1 using [3H]E1 as substrate after 10 mins by radioflow detection assay
Sequence (P14061 whole entry): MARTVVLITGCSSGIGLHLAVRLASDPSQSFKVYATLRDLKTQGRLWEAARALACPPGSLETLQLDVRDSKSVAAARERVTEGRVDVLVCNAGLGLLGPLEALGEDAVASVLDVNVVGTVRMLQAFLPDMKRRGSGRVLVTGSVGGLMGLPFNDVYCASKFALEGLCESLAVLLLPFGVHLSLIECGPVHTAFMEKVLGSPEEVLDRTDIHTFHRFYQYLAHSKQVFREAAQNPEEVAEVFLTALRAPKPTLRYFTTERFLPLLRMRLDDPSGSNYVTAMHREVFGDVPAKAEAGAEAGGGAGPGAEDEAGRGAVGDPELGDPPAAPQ
reported-endpoint: pIC50
Answers are plain numbers, as −log10 of the molar value.

Would you please look over these solved cases?
- smiles-input: "O=S(=O)(Nc1cccc(-c2c(O)ccc3cc(-c4cccc(O)c4)ccc23)c1)c1ccc2ncccc2c1"
  subject-of-test: "17-beta-hydroxysteroid dehydrogenase type 1 (Homo sapiens, UniProt P14061)"
  pIC50: 7.04
- smiles-input: "O=S(=O)(Nc1cccc(-c2c(O)ccc3cc(-c4cccc(O)c4)ccc23)c1)c1cccs1"
  subject-of-test: "17-beta-hydroxysteroid dehydrogenase type 1 (Homo sapiens, UniProt P14061)"
  pIC50: 7.55

Please give pIC50 for each item listed below.
1. O=S(=O)(Nc1cccc(-c2c(O)ccc3cc(-c4cccc(O)c4)ccc23)c1)c1ccccc1F
2. O=S(=O)(Nc1cccc(-c2c(O)ccc3cc(-c4cccc(O)c4)ccc23)c1)c1cccc(F)c1
3. O=S(=O)(c1ccccc1)n1ccc2c(-c3c(O)ccc4cc(-c5cccc(O)c5)ccc34)cccc21
4. N#Cc1cccc(S(=O)(=O)Nc2cccc(-c3c(O)ccc4cc(-c5cccc(O)c5)ccc34)c2)c1
5. O=S(=O)(Nc1cccc(-c2c(O)ccc3cc(-c4cccc(O)c4)ccc23)c1)c1ccc(F)cc1

*A*
1. 7.54
2. 7.66
3. 7.49
4. 7.52
5. 7.28

###

organism: Callithrix jacchus; assay: Inhibition of mormoset placenta microsomal 17betaHSD2 using [3H]E2 as substrate at 50 nM after 20 mins by radioflow detection assay
reported-endpoint: inhibition

Would you please look over these solved cases?
- smiles-input: "Cc1ccccc1S(=O)(=O)Nc1cccc(-c2c(O)ccc3cc(-c4cccc(O)c4)ccc23)c1"
  inhibition: "< 10%"
- smiles-input: "O=S(=O)(Nc1cccc(-c2c(O)ccc3cc(-c4cccc(O)c4)ccc23)c1)c1cccs1"
  inhibition: "18%"
- smiles-input: "O=S(=O)(c1ccccc1)n1ccc2ccc(-c3c(O)ccc4cc(-c5cccc(O)c5)ccc34)cc21"
  inhibition: "12%"
- smiles-input: "N#Cc1ccccc1S(=O)(=O)Nc1cccc(-c2c(O)ccc3cc(-c4cccc(O)c4)ccc23)c1"
  inhibition: "35%"
- smiles-input: "N#Cc1ccc(S(=O)(=O)Nc2cccc(-c3c(O)ccc4cc(-c5cccc(O)c5)ccc34)c2)cc1"
  inhibition: "30%"
- smiles-input: "O=S(=O)(Nc1cccc(-c2c(O)ccc3cc(-c4cccc(O)c4)ccc23)c1)c1ccc(Br)cc1OC(F)(F)F"
  inhibition: "< 10%"
- smiles-input: "O=S(=O)(CC(F)(F)F)Nc1cccc(-c2c(O)ccc3cc(-c4cccc(O)c4)ccc23)c1"
  inhibition: "32%"
- smiles-input: "CC(=O)Nc1ccc(S(=O)(=O)Nc2cccc(-c3c(O)ccc4cc(-c5cccc(O)c5)ccc34)c2)cc1"
  inhibition: "< 10%"

Please give inhibition for each item listed below.
1. O=[N+]([O-])c1ccccc1S(=O)(=O)Nc1cccc(-c2c(O)ccc3cc(-c4cccc(O)c4)ccc23)c1
2. Cc1cccc(S(=O)(=O)Nc2cccc(-c3c(O)ccc4cc(-c5cccc(O)c5)ccc34)c2)c1
3. O=S(=O)(Nc1cccc(-c2c(O)ccc3cc(-c4cccc(O)c4)ccc23)c1)c1ccccc1
4. O=S(=O)(Nc1cccc(-c2c(O)ccc3cc(-c4cccc(O)c4)ccc23)c1)c1cccc(F)c1
5. O=[N+]([O-])c1ccc(S(=O)(=O)Nc2cccc(-c3c(O)ccc4cc(-c5cccc(O)c5)ccc34)c2)cc1

*A*
1: 21%; 2: 11%; 3: < 10%; 4: 33%; 5: 13%

Please give inhibition for each item listed below.
1. O=S(=O)(Nc1cccc(-c2c(O)ccc3cc(-c4cccc(O)c4)ccc23)c1)c1ccc(O)cc1
2. O=S(=O)(c1ccccc1)n1ccc2c(-c3c(O)ccc4cc(-c5cccc(O)c5)ccc34)cccc21

*A*
1: 30%; 2: 43%

Please give inhibition for each item listed below.
1. O=S(=O)(Nc1cccc(-c2c(O)ccc3cc(-c4cccc(O)c4)ccc23)c1)c1ccc2ncccc2c1
2. O=S(=O)(Nc1cccc(-c2c(O)ccc3cc(-c4cccc(O)c4)ccc23)c1)c1ccccc1F
3. Cc1ccc(S(=O)(=O)Nc2cccc(-c3c(O)ccc4cc(-c5cccc(O)c5)ccc34)c2)cc1
4. O=[N+]([O-])c1ccc(S(=O)(=O)Nc2cccc(-c3c(O)ccc4cc(-c5cccc(O)c5)ccc34)c2)c([N+](=O)[O-])c1
5. O=S(=O)(Nc1cccc(-c2c(O)ccc3cc(-c4cccc(O)c4)ccc23)c1)c1cc(F)c(Br)cc1F
6. O=[N+]([O-])c1cccc(S(=O)(=O)Nc2cccc(-c3c(O)ccc4cc(-c5cccc(O)c5)ccc34)c2)c1
7. O=S(=O)(Nc1cccc(-c2c(O)ccc3cc(-c4cccc(O)c4)ccc23)c1)c1ccc(F)cc1
8. O=S(=O)(Nc1cccc(-c2c(O)ccc3cc(-c4cccc(O)c4)ccc23)c1)c1cccc(O)c1

*A*
1. 13%
2. < 10%
3. 11%
4. 36%
5. 17%
6. 17%
7. 20%
8. < 10%

*Q* Look up inhibition: "N#Cc1cccc(S(=O)(=O)Nc2cccc(-c3c(O)ccc4cc(-c5cccc(O)c5)ccc34)c2)c1"
*A* < 10%
